Source: patent US8871753B2

# target.under.test: human JAK3 (a.a. 781-1124) (Homo sapiens)
# Construct: JAK3 (a.a. 781-1124); His tag (N); made in house; host or cells: insect cells (baculovirus)
# test.details: In vitro JAK kinase assay (HTRF, phosphorylation of a biotinylated peptide), JAK3
# Assay type: biochemical
# experimental.conditions: Table D1
Where a name gives a salt, the structure may show the parent alone.
Collected log10 of IC50 values appear next to each entry.
For clarity, the numbers are log10 values of IC50 expressed in µM.

compound	target.under.test	log10 of IC50
N#Cc1cccc(NC(=O)N2CCN(c3ccc4cc3CCc3cccc(c3)Nc3ncc(Cl)c(n3)N4)CC2)c1 [Example D89, bis(trifluoroacetate)]	human JAK3 (a.a. 781-1124) (Homo sapiens)	-1.11
O=C(C[C@H]1CCCN(C(=O)Nc2ccccc2)C1)Nc1ccc2cc1CCc1cccc(c1)Nc1ncc(Cl)c(n1)N2 [Example D197, trifluoroacetate]	human JAK3 (a.a. 781-1124) (Homo sapiens)	-1.36
Clc1cnc2nc1Nc1cccc(c1)OCCc1cc(cc(-c3cnc(N4CCNCC4)nc3)c1)N2 [Example D31, tris(trifluoroacetate)]	human JAK3 (a.a. 781-1124) (Homo sapiens)	-2.17
Clc1cnc2nc1Nc1cccc(c1)OCCc1cc(cc(-c3ccc(N4CCNCC4)nc3)c1)N2 [Example D33, tris(trifluoroacetate)]	human JAK3 (a.a. 781-1124) (Homo sapiens)	-1.92

Entry Clc1cnc2nc1Nc1cccc(c1)OCCc1cc(cc(-c3cccnc3)c1)N2 [Example D26, bis(trifluoroacetate)] , tested on human JAK3 (a.a. 781-1124) (Homo sapiens), has a reported log10 of IC50 of -2.07

* * *

Collected pIC50 values appear next to each entry.
# target.under.test: human JAK3 (a.a. 781-1124) (Homo sapiens, UniProt P52333)
# Construct: JAK3 (a.a. 781-1124); His tag (N); made in house; host or cells: insect cells (baculovirus)
# Sequence (P52333 781-1124): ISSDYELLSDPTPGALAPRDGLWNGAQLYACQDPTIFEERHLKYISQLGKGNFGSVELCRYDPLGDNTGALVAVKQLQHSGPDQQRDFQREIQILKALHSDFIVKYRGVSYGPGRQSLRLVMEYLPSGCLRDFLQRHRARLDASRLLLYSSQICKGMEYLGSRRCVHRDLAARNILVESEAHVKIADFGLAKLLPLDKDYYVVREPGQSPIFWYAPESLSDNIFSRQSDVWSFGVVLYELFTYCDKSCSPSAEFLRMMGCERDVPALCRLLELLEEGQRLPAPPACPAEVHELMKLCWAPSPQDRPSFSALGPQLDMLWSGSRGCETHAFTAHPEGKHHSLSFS
# test.details: In vitro JAK kinase assay (HTRF, phosphorylation of a biotinylated peptide), JAK3
# Format: biochemical
# experimental.conditions: Table B1
Where a name gives a salt, the structure may show the parent alone.
// scale note: pIC50 = -log10(conc_M); give the bare number

compound	pIC50
CCc1ccccc1NC(=O)Nc1ccc2cc1CCc1cccc(c1)Nc1ncc(Cl)c(n1)N2 [Example B97, trifluoroacetate]	7.46

pIC50 for CC(C)(C)C(=O)Nc1ccc2cc1CCc1cccc(c1)Nc1ncc(Cl)c(n1)N2 [Example B58, trifluoroacetate] is 6.97

* * *

Collected pIC50 values appear next to each entry.
# target.under.test: TYK2 (Homo sapiens, UniProt P29597)
# Sequence (P29597 whole entry): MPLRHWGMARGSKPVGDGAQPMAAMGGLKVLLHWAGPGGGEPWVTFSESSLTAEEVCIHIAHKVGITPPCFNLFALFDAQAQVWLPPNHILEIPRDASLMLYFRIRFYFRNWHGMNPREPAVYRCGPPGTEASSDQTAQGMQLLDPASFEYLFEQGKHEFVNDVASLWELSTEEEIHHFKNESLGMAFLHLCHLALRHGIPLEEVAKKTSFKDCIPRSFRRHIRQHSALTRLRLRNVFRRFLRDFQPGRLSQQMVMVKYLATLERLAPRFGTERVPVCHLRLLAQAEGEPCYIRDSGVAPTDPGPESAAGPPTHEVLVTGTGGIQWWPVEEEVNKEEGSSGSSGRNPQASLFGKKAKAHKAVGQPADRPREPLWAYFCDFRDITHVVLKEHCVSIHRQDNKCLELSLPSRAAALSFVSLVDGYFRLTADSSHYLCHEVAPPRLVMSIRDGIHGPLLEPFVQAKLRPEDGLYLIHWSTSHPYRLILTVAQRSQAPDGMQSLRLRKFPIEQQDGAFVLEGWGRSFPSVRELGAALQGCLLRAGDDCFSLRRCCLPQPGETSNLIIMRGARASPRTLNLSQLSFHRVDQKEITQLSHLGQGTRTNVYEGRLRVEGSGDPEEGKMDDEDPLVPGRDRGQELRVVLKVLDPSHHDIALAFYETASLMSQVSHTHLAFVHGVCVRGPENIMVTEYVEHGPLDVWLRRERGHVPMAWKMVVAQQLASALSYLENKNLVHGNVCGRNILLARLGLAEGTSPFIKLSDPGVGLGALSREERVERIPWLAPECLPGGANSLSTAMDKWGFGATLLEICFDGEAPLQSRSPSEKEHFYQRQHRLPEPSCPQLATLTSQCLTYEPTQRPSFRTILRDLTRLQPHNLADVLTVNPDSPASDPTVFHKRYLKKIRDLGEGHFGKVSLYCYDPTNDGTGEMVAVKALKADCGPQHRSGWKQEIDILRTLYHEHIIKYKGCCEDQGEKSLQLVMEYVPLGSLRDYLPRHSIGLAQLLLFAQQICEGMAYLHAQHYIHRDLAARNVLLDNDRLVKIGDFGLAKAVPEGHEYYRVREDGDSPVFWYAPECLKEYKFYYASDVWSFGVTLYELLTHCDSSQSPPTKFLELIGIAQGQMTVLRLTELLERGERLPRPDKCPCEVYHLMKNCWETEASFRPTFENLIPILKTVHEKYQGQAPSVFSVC
# test.details: TYK2 kinase inhibition (Table A1)
# Assay type: biochemical
# experimental.conditions: Table B1
Counter-ions that a name gives are not always drawn.
// scale note: pIC50 = -log10(conc_M); give the bare number

Below, each entry is followed by its recorded pIC50 result.
molecule	pIC50
O=C(Nc1cc2cc(c1)Nc1nc(ncc1Cl)Nc1cccc(c1)CC2)Nc1ccccc1F [Example B213, trifluoroacetate]	6.69
O=C(Nc1ccccn1)Nc1ccc2cc1CCc1cccc(c1)Nc1ncc(Cl)c(n1)N2 [Example B253, bis(trifluoroacetate)]	6.76
Cc1ccc(C(=O)Nc2ccc3cc2CCc2cccc(c2)Nc2ncc(Cl)c(n2)N3)cc1 [Example B47, trifluoroacetate]	8.49
O=C(Nc1ccc2cc1CCc1cccc(c1)Nc1ncc(Cl)c(n1)N2)c1nccs1 [Example B52, trifluoroacetate]	8.20

pIC50 for N#Cc1ccccc1S(=O)(=O)Nc1ccc2cc1CCc1cccc(c1)Nc1ncc(Cl)c(n1)N2 [Example B155, trifluoroacetate] is 8.66

pIC50 for O=C(Nc1ccc2cc1CCc1cncc(c1)Nc1ncc(Cl)c(n1)N2)N1CCN(c2ccncc2)CC1 [Example B293, (trifluoroacetate)] is 6.82

pIC50 for Cc1cncc(N2CCN(C(=O)Nc3ccc4cc3CCc3cncc(c3)Nc3ncc(Cl)c(n3)N4)CC2)n1 [Example B308, tris(trifluoroacetate)] is 7.47

pIC50 for O=C(Nc1ccc2cc1CCc1cccc(c1)Nc1ncc(Cl)c(n1)N2)c1cccnc1Cl [Example B70, bis(trifluoroacetate)] is 8.60

pIC50 for O=C(Nc1ccc2cc1CCc1cccc(c1)Nc1ncc(Cl)c(n1)N2)c1ccccn1 [Example B37, bis(trifluoroacetate)] is 7.68

pIC50 for N#Cc1ccc(NC(=O)Nc2ccc3cc2CCc2cccc(c2)Nc2ncc(Cl)c(n2)N3)cc1 [Example B96, trifluoroacetate] is 7.92
